Tested on: T-47D breast
Test: NCI-60 one-dose screen, 48 h (100 = growth as untreated, 0 = no growth, -100 = all killed)
Conditions: 10 µM unless noted
Procedure: Growth inhibition of the T-47D human tumor cell line is measured as a screen for anti-cancer activity. Cells are grown in 96 well plates and exposed to the test compound for 48 hours. Compounds are tested at a single concentration, which is 10^-5 M for most compounds. The reported endpoint is percent growth (GI% or GIPRCNT), where numbers from 0 - 100% represent growth inhibition, and numbers from -100% - 0 represent cell death. For example, a value of 40 represents 60% growth inhibition. […]
About 83,000 compounds went through this panel and 20% of them were active in at least one assay; those are over-represented in the sample as a whole.
ATTRIBUTE_MEASURED: growth (%)
Respond numerically; units are % and should not be typed.

Worked examples follow.
MOLECULE	VALUE_UNITS	DATA_VALUE
COc1ccc(/C=C/C(=O)c2ccc(NC(=O)CSc3nnc(-c4ccc(OC)cc4)n3-c3ccccc3)cc2)cc1	%	92.9
CCN(CC)CCC(CNc1ccnc2cc(Cl)ccc12)c1ccc(O)cc1 (centres undefined)	%	114
CC1=C(C(=O)Nc2ccc(F)cc2)C(c2ccc(C)cc2)C2=C(CC(C)(C)CC2=O)N1 (centres undefined)	%	85.2
O=C(CI)NCCNc1cccc2c(S(=O)(=O)O)cccc12	%	103
Cc1ccccc1N1C(c2ccccc2)=NNC12C=CC(=O)c1c(O)cccc12 (centres undefined)	%	87.7

Query string: I have this molecule here, Cc1cc(C)cc(NC(=O)Cn2nncc2CN2C(=O)CSC2=O)c1 , and I need its recorded growth.
Result string: 99.9

Query string: Can you check CCCCC(CCc1ccccn1)C(=O)c1ccccc1 (centres undefined) next?
Result string: 100

Query string: Another molecule: COC(=O)CNS(=O)(=O)c1ccc2c(c1)Cc1cc(S(=O)(=O)NCC(=O)OC)ccc1-2
Result string: 99.5

###

Test system: SK-MEL-28 melanoma
Test: NCI-60 one-dose screen, 48 h
Conditions: 10 µM unless noted
The panel holds about 83,000 compounds, 20% with a hit somewhere; the sample as a whole holds those more often. Active and inactive are the calls of the source. How the source made its calls: active means growth percent below 10; inactive means the rest.
Hi there, use one of these labels in your reply, thanks! active, inactive

Example entries and their recorded answers appear below.
COMPOUND	ASSAY_TARGET	QUALITATIVE_LABEL
Oc1ccc(-c2cnc(-c3ccccc3)[nH]2)c(O)c1	SK-MEL-28 melanoma	inactive
COc1ccc([C@@H]2[C@@H](Cl)C(=O)N2c2cc(OC)c(OC)c(OC)c2)cc1C	SK-MEL-28 melanoma	inactive
Cc1ccc(/C=C/C(=N/N=C(N)N)c2ccccc2)cc1	SK-MEL-28 melanoma	inactive
COc1cccc(NC(=O)c2c(-c3ccccc3)c(-c3ccccc3)n[nH]c2=O)c1	SK-MEL-28 melanoma	inactive
N=C(N)c1ccc(-c2ccc(-c3cc(Cl)cc(Cl)c3)o2)nc1	SK-MEL-28 melanoma	active

Query string: Name the outcome recorded for C#CC[C@@H]1C[C@]2(C)[C@H]3CC[C@@H]4[C@H]5C(C(=C)C)CC[C@]5(C(=O)NCCCN5CCN(CCCN)CC5)CC[C@@]4(C)[C@]3(C)CC[C@H]2C(C)(C)[C@H]1OC(C)=O (stereo partly drawn) in the assay.
Result string: active

Query string: Another compound to check: O=C(C(Br)C(Br)c1ccccc1)C(Br)C(Br)c1ccccc1 (stereo not drawn)
Result string: active

Query string: Same for O=C(Nc1ccc(Oc2ccc(NC(=O)Nc3ccccc3Cl)cc2)cc1)Nc1ccccc1Cl
Result string: active

###

Tested on: MCF7 breast
Assay: NCI-60 one-dose screen, 48 h (100 = growth as untreated, 0 = no growth, -100 = all killed)
Settings: 10 µM unless noted
About 83,000 compounds went through this panel and 20% of them were active in at least one assay; those are over-represented in the sample as a whole.
Below, each entry is listed alongside its reported growth.
Return type: number; implicit unit %.

CPD_SMILES	DATA_VALUE
CC(C)[C@H](CN)NC[C@H](C)NS(=O)(=O)c1ccc(C(C)(C)C)cc1	90.2
Nc1nc2ccc([C@@H]3Nc4ccc5[nH]ncc5c4[C@H]4[C@H]5CCC(C5)[C@H]43)cc2s1	-0.0226
CCCc1cc2c(cc1CN(Cc1cc3c(cc1CCC)OCO3)C(=N)OCC)OCO2	86.5
COc1ccc(/C(=C\c2cc(OC)c(OC)c(OC)c2)C(=O)N2CCN(c3ccccc3)CC2)cc1O	92.5
COc1ccc(-c2nc3ccc(Cc4ccc5nc(-c6ccc(OC)cc6)[nH]c5c4)cc3[nH]2)cc1	-13.5

Query string: # get_value(readout='growth', item= CCCc1n(Cc2ccc3ccccc3c2)c2ccccc2[n+]1Cc1ccc2ccccc2c1 )
Result string: -64.4

Query string: Nc1nonc1-c1nc2ccccc2n1Cc1ccc(F)cc1 , same question.
Result string: 28.4

Query string: Now consider Cn1c(=O)c2[nH]c(Cc3ccc4c(c3)OCO4)nc2n(C)c1=O and answer again.
Result string: 97.7

Query string: Also COc1ccc(/C(=C\c2ccc3c(c2)OCO3)C(=O)Nc2nc3ccc(F)cc3s2)cc1OC ?
Result string: 94.9

###

System: MALME-3M melanoma
Assay: NCI-60 one-dose screen, 48 h (100 = growth as untreated, 0 = no growth, -100 = all killed)
Conditions: 10 µM unless noted
Compounds without any hit were thinned out: in the full panel of roughly 83,000, 20% have a hit.
Catalogue of molecules with associated growth
Only the number, expressed in %, is required.

CPD_SMILES	growth (%)
O=C(CCCCCCc1nc2ccc(Br)cc2[nH]1)NO	-6.27
Oc1c(-c2cc(C(F)(F)F)[nH]n2)cc(Cl)c(OCc2ccc(Cl)cc2)c1-c1ccc(Cl)c(C(F)(F)F)c1	-30.5
COc1ccc([C@@H]2[C@@H](Oc3ccccc3)C(=O)N2c2cc(OC)c(OC)c(OC)c2)cc1F	65.5
Nc1nc(N)c2cc(Sc3ccc(Cl)cc3)ccc2n1	56.7

// switching to the query molecule
Query string: Give the measured growth of CC(C)[C@H](CN)NC[C@H](C)NS(=O)(=O)c1ccc(C(C)(C)C)cc1 .
Result string: 97.8

###

Test system: NCI-H322M lung
Assay: NCI-60 one-dose screen, 48 h (100 = growth as untreated, 0 = no growth, -100 = all killed)
Conditions: 10 µM unless noted
The panel holds about 83,000 compounds, 20% with a hit somewhere; the sample as a whole holds those more often.
ATTRIBUTE_MEASURED: growth (%)
Please reply with the bare figure in % and do not write the unit itself.

MOLECULE	growth, %
O=C(Nc1cccc(Cl)c1)Nc1cc(C(F)(F)F)ccc1Cl	30.8

Query string: Reported growth, molecule Clc1ccc2c(c1)-n1cccc1C(c1ccc3ccccc3c1)=NC2 : ____
Result string: 122

Query string: What would you report for CNC(=O)c1cc(Oc2ccc(NC(=O)c3nc(S(C)(=O)=O)n(C)c3-c3ccc(F)cc3)cc2)ccn1 ?
Result string: 62.5

Query string: Quick one: COc1cc2nccc(Oc3ccc(NC(=O)C4(C(=O)Nc5ccc(F)cc5)CC4)cc3)c2cc1O
Result string: 87.7

Query string: What do you have for O=C1OC(c2ccc(-c3ccccc3)cc2)=C/C1=C/c1c(Cl)cccc1Cl ?
Result string: 85.7

###

Test system: IGROV1 ovarian
Assay: NCI-60 one-dose screen, 48 h
Details: 10 µM unless noted
Compounds without any hit were thinned out: in the full panel of roughly 83,000, 20% have a hit. Active and inactive are the calls of the source. How the source made its calls: active means growth percent below 10; inactive means the rest.
Answer with one of the outcomes T for active, F for inactive

Solved entries (count: 3):
MOLECULE	QUALITATIVE_LABEL
NC(=S)N/N=C(/c1cccs1)C1CC1	F
C=CCn1c(SCC(=O)Nc2ccc(/C(C)=N\O)cc2)nnc1-c1cc(-c2ccccc2)nc2ccccc12	T
COc1cc(NCCCCC(C)N)c2nccc(C)c2c1 (stereo unspecified)	F

Query string: Check the results log: what was the call for CCOC(C)(c1ccc(Cl)cc1)C1CCNCC1 (stereo unspecified) ?
Result string: F

###

System: SN12C renal
Assay: NCI-60 one-dose screen, 48 h (100 = growth as untreated, 0 = no growth, -100 = all killed)
Conditions: 10 µM unless noted
The panel holds about 83,000 compounds, 20% with a hit somewhere; the sample as a whole holds those more often.
ATTRIBUTE_MEASURED: growth (%)
Report as a plain number; the unit % is understood.

Some entries whose results are on file:
COMPOUND	growth [%]
C=CCn1c(C)nc2cc(Nc3nc(Nc4ccc5nc(C)n(CC=C)c5c4)nc4ccccc34)ccc21	96.5
C[C@@H]1C[C@H](N)C[C@H](c2ccncc2NC(=O)c2ccc(F)c(-c3c(F)cccc3F)n2)C1	58.2
COc1ccc(C2C3=C(COC3=O)N(CCO)c3cc(OC)c(OC)cc32)cc1 (centres undefined)	102
CN1CCN(Cc2ccc(NC(=O)c3cncc(C#Cc4ncc5cnccn45)c3)cc2C(F)(F)F)CC1	54.5
NC(=Nc1ccccc1)SCCCSC(N)=Nc1ccccc1	89.3
COc1ccc2c(c1)CCCC21C(=O)Nc2ccccc21 (centres undefined)	101
Nc1n[nH]c2ccc([C@@H]3Nc4c(F)cc5[nH]ncc5c4[C@H]4C5CCC(C5)[C@@H]34)cc12 (some centres undefined)	22.6
Cc1[nH]nc2ccc3nc(-c4ccc5[nH]ncc5c4)c4c(c3c12)CCCC4	23.2

Query string: Looking for the measured growth of CCCCN(CCCC)CCC(O)c1cc2ccc(C(F)(F)F)cc2c2cc(C(F)(F)F)ccc12 (centres undefined) , can you help?
Result string: 46.9
